Molecular target: T1, human EphA2 on OVCAR-3 and U-251 cells (human, UniProt P29317 24-976)
T1 construct: whole, on cells; also called EphA2 receptors
T1 sequence (P29317 24-976): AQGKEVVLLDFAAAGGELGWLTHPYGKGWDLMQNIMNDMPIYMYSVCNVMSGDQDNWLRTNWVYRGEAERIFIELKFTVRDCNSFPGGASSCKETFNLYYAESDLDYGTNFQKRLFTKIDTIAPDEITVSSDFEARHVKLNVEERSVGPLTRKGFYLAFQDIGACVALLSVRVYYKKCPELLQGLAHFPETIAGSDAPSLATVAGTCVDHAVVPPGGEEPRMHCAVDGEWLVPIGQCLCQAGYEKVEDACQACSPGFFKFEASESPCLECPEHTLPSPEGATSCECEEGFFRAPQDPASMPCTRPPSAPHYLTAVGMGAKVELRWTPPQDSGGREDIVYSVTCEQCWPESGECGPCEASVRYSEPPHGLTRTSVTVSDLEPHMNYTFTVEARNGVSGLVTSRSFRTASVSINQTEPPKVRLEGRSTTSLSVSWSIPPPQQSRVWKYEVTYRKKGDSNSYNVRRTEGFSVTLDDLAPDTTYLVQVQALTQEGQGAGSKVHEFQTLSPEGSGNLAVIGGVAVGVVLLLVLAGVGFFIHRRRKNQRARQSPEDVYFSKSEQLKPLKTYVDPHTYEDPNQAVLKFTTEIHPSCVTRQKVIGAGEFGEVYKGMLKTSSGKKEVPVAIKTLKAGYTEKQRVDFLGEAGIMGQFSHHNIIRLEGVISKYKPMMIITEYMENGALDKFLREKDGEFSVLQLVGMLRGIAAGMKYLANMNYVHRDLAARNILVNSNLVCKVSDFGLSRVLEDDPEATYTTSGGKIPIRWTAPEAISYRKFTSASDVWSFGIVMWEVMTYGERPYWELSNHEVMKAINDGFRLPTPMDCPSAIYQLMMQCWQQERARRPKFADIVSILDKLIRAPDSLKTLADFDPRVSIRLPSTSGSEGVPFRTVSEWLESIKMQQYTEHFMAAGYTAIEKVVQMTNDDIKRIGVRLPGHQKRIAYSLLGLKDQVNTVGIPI
Assay: CLIA: scFv-decorated fluorescent NTA(Ni) liposomes on EphA2-expressing cells, FACS
Description: To test the anti-EphA2 activity of these variant scFvs, the binding and internalization of liposomes externally decorated with these Abs was assayed on cell lines expressing EphA2. […] Dil5-NTA liposomes were prepared as follows. […] The concentration of liposomal phospholipid was then determined after acid digestion using spectrophotometric phosphomolybdate method.
VALUE_KIND: binding result

{"columns": ["BINDER", "VALUE_KIND", "VALUE_MEASURED"],
 "data": [
  ["scFv-8 (scFv) scFv: QVQLVQSGGGLVQPGGSLRLSCAASGFTFSSYAMHWVRQAPGKGLEWVTVISPSGHNTYYADSVKGRFTISRDNSKNTLYLQMNSLRAEDTAVYYCARASVGATGPFDIWGQGTLVTVSSASTGGGGSGGGGSGGGGSGGGGSSSELTQPPSVSVAPGQTVTITCQGDSLRSYYASWYQQKPGTAPKLLIYGENNRPSGVPDRFSGSSSGTSASLTITGAQAEDEADYYCNSRDSSGTHLTVFGGGTKLTVLG", "binding result", "binds"],
  ["scFv-11 (scFv) scFv: QVQLVQSGGGLVQPGGSLRLSCAASGFTFSSYAMHWVRQAPGKGLEWVAVISHHGSNTYYADSVKGRFTISRDNSKNTLYLQMNSLRAEDTAVYYCARASVGATGPFDIWGQGTLVTVSSASTGGGGSGGGGSGGGGSGGGGSSSELTQPPSVSVAPGQTVTITCQGDSLRSYYASWYQQKPGTAPKLLIYGENNRPSGVPDRFSGSSSGTSASLTITGAQAEDEADYYCNSRDSSGTHLTVFGGGTKLTVLG", "binding result", "binds"],
  ["scFv-4 (scFv) scFv: QVQLVQSGGGLVQPGGSLRLSCAASGFTFSSYAMHWVRQAPGKGLEWVTVISPHGRNKYYADSVKGRFTISRDNSKNTLYLQMNSLRAEDTAVYYCARASVGATGPFDIWGQGTLVTVSSASTGGGGSGGGGSGGGGSGGGGSSSELTQPPSVSVAPGQTVTITCQGDSLRSYYASWYQQKPGTAPKLLIYGENNRPSGVPDRFSGSSSGTSASLTITGAQAEDEADYYCNSRDSSGTHLTVFGGGTKLTVLG", "binding result", "binds"],
  ["scFv-10 (scFv) scFv: QVQLVQSGGGLVQPGGSLRLSCAASGFTFSSYAMHWVRQAPGKGLEWVSAISPPGHNTYYADSVKGRFTISRDNSKNTLYLQMNSLRAEDTAVYYCARASVGATGPFDIWGQGTLVTVSSASTGGGGSGGGGSGGGGSGGGGSSSELTQPPSVSVAPGQTVTITCQGDSLRSYYASWYQQKPGTAPKLLIYGENNRPSGVPDRFSGSSSGTSASLTITGAQAEDEADYYCNSRDSSGTHLTVFGGGTKLTVLG", "binding result", "binds"],
  ["scFv-15 (scFv) scFv: QVQLVQSGGGLVQPGGSLRLSCAASGFTFSSYAMHWVRQAPGKGLEWVSVISPHGSNKYYADSVKGRFTISRDNSKNTLYLQMNSLRAEDTAVYYCARASVGATGPFDIWGQGTLVTVSSASTGGGGSGGGGSGGGGSGGGGSSSELTQPPSVSVAPGQTVTITCQGDSLRSYYASWYQQKPGTAPKLLIYGENNRPSGVPDRFSGSSSGTSASLTITGAQAEDEADYYCNSRDSSGTHLTVFGGGTKLTVLG", "binding result", "binds"]
]}
